- assay text: MTT cytotoxicity assay on Cos-7 cells
- Type: cell-based, African green monkey
- experimental setup: African green monkey, Cos-7 cells, 4.3 µM, read-out: Cell viability Cos-7 (MTT)
parameter: viability at 24 h, 4.3 µM
Record the result as a number with its unit.

Return reported viability at 24 h, 4.3 µM; argument: c1ccc([P+](CCCCCCCCCCCC[P+](c2ccccc2)(c2ccccc2)c2ccccc2)(c2ccccc2)c2ccccc2)cc1
64.2%

----------
- assay text: Presto Blue viability test on MRC-5 lung fibroblasts
- Assay type: cell-based, human
- experimental setup: human, 48 h; read-out: Selectivity index (SI) = IC50 MRC-5 / IC50 HTLA-ER
parameter: selectivity ratio at 48 h

Return reported selectivity ratio at 48 h; argument: c1ccc([P+](CCCCCCCCCCCC[P+](c2ccccc2)(c2ccccc2)c2ccccc2)(c2ccccc2)c2ccccc2)cc1 [BPPB]
~1

----------
- assay text: Presto Blue viability test on MRC-5 lung fibroblasts
- Format: cell-based, human
- experimental setup: human, MRC-5 lung fibroblast cells; 5.0 µM; 72 h; read-out: Percentage of viable MRC-5 cells with respect to seeded cells at T0
parameter: viability at 72 h, 5 µM (%)
Answers are plain numbers, in %.

Return reported viability at 72 h, 5 µM; argument: c1ccc([P+](CCCCCCCCCCCC[P+](c2ccccc2)(c2ccccc2)c2ccccc2)(c2ccccc2)c2ccccc2)cc1 [BPPB]
3.04

----------
- Tested on: HTLA-ER cells
- assay text: Cell viability assay (CellTiter 96 AQueous One Solution) on etoposide-resistant HTLA-ER NB cells
- Format: cell-based, human
- experimental setup: Homo sapiens, 72 h, 72 h exposure; concentration range 0.5–50 µM
parameter: IC50 (µM)
Numbers only, in µM.

Return reported IC50; argument: c1ccc([P+](CCCCCCCCCCCC[P+](c2ccccc2)(c2ccccc2)c2ccccc2)(c2ccccc2)c2ccccc2)cc1 [BPPB]
0.892

----------
- System: HTLA-ER cells
- assay text: Cell viability assay (CellTiter 96 AQueous One Solution) on etoposide-resistant HTLA-ER NB cells
- Type: cell-based, human
- experimental setup: Homo sapiens, 48 h, 48 h exposure; refined concentration range 0.1–2 µM
parameter: pIC50
Numbers only, as −log10 of the molar value.

Return reported pIC50; argument: c1ccc([P+](CCCCCCCCCCCC[P+](c2ccccc2)(c2ccccc2)c2ccccc2)(c2ccccc2)c2ccccc2)cc1
6.05

----------
- assay text: In vitro hemolytic toxicity on red blood cells
- Type: cell-based, human
- experimental setup: human, isolated red blood cells, concentration at which both NB cell populations were fully exterminated; read-out: RBC viability
parameter: viability at 60 min (%)
Give bare numbers, in %.

Return reported viability at 60 min; argument: c1ccc([P+](CCCCCCCCCCCC[P+](c2ccccc2)(c2ccccc2)c2ccccc2)(c2ccccc2)c2ccccc2)cc1
98.4
